Tested on: K24384-001-R-PDC complex spheroids, viability;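 also: spheroids exposed to compounds for seven days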
procedureSummary: Anticancer human tumor K24384-001-R-PDC patient-derived pancreatic adenocarcinoma cell line growth inhibition [GQUAD]
conditions: curve of first compound; second compound 0.1 µM
Measured IC50, listed per entry for reference.

CCCS(=O)(=O)Nc1ccc(F)c(C(=O)c2c[nH]c3ncc(-c4ccc(Cl)cc4)cc23)c1F + Cc1[nH]c2ccc(F)cc2c1-c1nc2c3cccnc3c3ncccc3c2[nH]1 ... 8.66 µM
COc1ccc([C@@H](O)c2cc(-c3ncnc4cc(N5CCOCC5)ccc34)c(F)cc2Cl)nn1 + CN(C)c1ccc(Nc2c3ccc(NC(=O)CCN4CCCC4)cc3nc3cc(NC(=O)CCN4CCCC4)ccc23)cc1 ... 2.6 µM

Now, please, on to the next molecule.
input: Given O=C(c1cc(Cc2n[nH]c(=O)c3ccccc23)ccc1F)N1CCN(C(=O)C2CC2)CC1 + Cc1[nH]c2ccc(F)cc2c1-c1nc2c3cccnc3c3ncccc3c2[nH]1 , state its recorded IC50.
output: > 10 µM

Values from PubChem BioAssay AID2060483
